Origin of measurements: PubChem BioAssay (NCI)

- Tested on: OVCAR-8 ovarian
- Assay Procedure: NCI-60 one-dose screen, 48 h (100 = growth as untreated, 0 = no growth, -100 = all killed)
- Assay Conditions: 10 µM unless noted
Compounds without any hit were thinned out: in the full panel of roughly 83,000, 20% have a hit.
# growth per record follows
The figure you give is taken to be in %; do not add the unit.

Known growth results, listed for orientation:
For COc1cccc2c1C=CC1(O2)Oc2cccc(OC)c2C=C1C (centres undefined) , what is its reported growth?
23.5

Then this compound: "CCCCSC1=C(Cl)CN(c2ccccc2)C1=O"
102

Then this compound: "C#C[C@]1(O)CC[C@H]2[C@@H]3CC=C4c5sc(N(C)c6ccccc6)nc5CC[C@]4(C)[C@H]3CC[C@@]21C"
82

Now, please, on to the next compound.
For COc1ccc(C2CC(c3cccc(OCCCCOc4cccc(C5=NOC(c6ccc(OC)cc6)C5)c4)c3)=NO2)cc1 (centres undefined) , what is its reported growth?
93.5

----------
# growth per record follows
- System: CAKI-1 renal
- Assay Procedure: NCI-60 one-dose screen, 48 h (100 = growth as untreated, 0 = no growth, -100 = all killed)
- Assay Conditions: 10 µM unless noted
About 83,000 compounds went through this panel and 20% of them were active in at least one assay; those are over-represented in the sample as a whole.
The figure you give is taken to be in %; do not add the unit.

For "Cc1ccc2c(n1)C(=O)C(Cl)=C(Nc1cc(C(F)(F)F)cc(C(F)(F)F)c1)C2=O" , what is its reported growth?
81.4

Further cases:
For "Cc1ccccc1N1CCN(C2=C(Cl)C(=O)c3ncccc3C2=O)CC1" , what is its reported growth?
25.4

Then this molecule: "Cn1c(SCC(=O)c2ccco2)nc2ccccc2c1=O"
74.7

Then this molecule: "O=C1[C@H]2Cc3c([nH]c4ccccc34)[C@H](c3ccc(Br)cc3)N2C(=O)CN1C1CCN(CC2CCCCC2)CC1"
52.8

----------
- Test system: MDA-MB-435 melanoma
- Assay Procedure: NCI-60 one-dose screen, 48 h (100 = growth as untreated, 0 = no growth, -100 = all killed)
- Assay Conditions: 10 µM unless noted
Compounds without any hit were thinned out: in the full panel of roughly 83,000, 20% have a hit.
Metric: growth (%)
The figure you give is taken to be in %; do not add the unit.

Known growth results, listed for orientation:
I'm curious: which growth was measured for "O=C(Nc1ccc(Cl)c(C(F)(F)F)c1)Nc1ccc2oc(=O)ccc2c1" tested on MDA-MB-435 melanoma?
50.3

Then this compound: "O=S(=O)(NCCCNc1nccc(-c2[nH]c(-c3ccccc3)nc2-c2ccc(F)c(O)c2)n1)c1cccc(F)c1"
38

Then this compound: "O=C(CCCCCCN1CC(=O)N2[C@@H](c3ccccc3Br)c3[nH]c4ccccc4c3C[C@H]2C1=O)NO"
27.8

Then this compound: "O=C(NCCNc1cc(-c2cn(-c3ccccc3)nc2-c2cccc(O)c2)ccn1)Nc1cc(C(F)(F)F)cc(C(F)(F)F)c1"
98.4

Then this compound: "CC(C)(C)OC(=O)Nc1ccc(-c2cccc(Oc3ccc4nnc(Cl)n4n3)c2)cc1"
83.7

Further cases:
I'm curious: which growth was measured for "CC1=C(C)C(=O)C(Nc2cccc(C(F)(F)F)c2)=C(Br)C1=O" tested on MDA-MB-435 melanoma?
103

Then this compound: "CC1=C(SCC(=O)OCCCCCC(C)C)C(=O)c2ccccc2C1=O"
102

Then this compound: "C#CCN(C)CCCOc1ccc(NCc2ccc(/C=C/C(=O)NO)cc2)cc1Cl"
-25.3

Then this compound: "CNC(=O)c1cc(Oc2ccc3c(c2)sc2nc(-c4ccc(N(C)C)cc4)cn23)ccn1"
-37.8

Then this compound: "C=C(C)[C@@H]1CC[C@]2(C(=O)NC3CCCCC3)CC[C@]3(C)[C@H](CC[C@@H]4[C@@]5(C)CC[C@H](N)C(C)(C)[C@@H]5CC[C@]43C)[C@@H]12"
98

Then this compound: "COc1ccc(-c2cc(-c3ccc(N(C)C)cc3)n3c(n2)nc2ccccc23)cc1"
74.3

Then this compound: "O=C1[C@@H]2Cc3c([nH]c4ccccc34)[C@@H](c3ccc(Cl)cc3)N2C(=O)CN1C1CCN(Cc2ccccc2)CC1"
64.2

Then this compound: C=C(C=O)[C@@H]1CC[C@]2(C(=O)O)CC[C@]3(C)C(CC[C@@H]4[C@@](C)(CCC#N)[C@H](C(=C)C=O)CC[C@]43C)[C@@H]12 (stereo partly drawn)
-9.89

Then this compound: "COC(=O)CNC(=O)c1cccc(-c2cc(=O)c3c(OC)c(OC)c(OC)cc3o2)c1"
107

Then this compound: "CN1CCN(Cc2ccc(NC(=O)c3cncc(C#Cc4cnc5ccc(O[C@@H]6CCOC6)nn45)c3)cc2C(F)(F)F)CC1"
-97.6

Then this compound: "Cn1c(SCC(=O)c2ccco2)nc2ccccc2c1=O"
105

Then this compound: "CN1CCN(c2ccc(Nc3nc(NCCNS(=O)(=O)c4ccc5ccccc5c4)c4sccc4n3)cc2)CC1"
53.7

Then this compound: COc1ccc(C2c3[nH]c4ccc(Cl)cc4c3CCN2c2oc(CO)nc2C#N)cc1 (stereo not drawn)
15.2

Then this compound: "C1=CC(c2nn3c(-c4ccccc4)nnc3s2)=Cc2ccccc2O1"
46.7

Then this compound: "Cn1cc(-c2cc3ncnc(Nc4ccc(NC(=O)Nc5cc(C(C)(C)C)on5)cc4)c3s2)cn1"
17.5

Then this compound: "C/C(=N\NC(N)=S)c1nnn(-c2ccc([N+](=O)[O-])cc2)c1C"
102

----------
- Test system: TK-10 renal
- Assay Procedure: NCI-60 one-dose screen, 48 h
- Assay Conditions: 10 µM unless noted
About 83,000 compounds went through this panel and 20% of them were active in at least one assay; those are over-represented in the sample as a whole. Calls of active or inactive are those of the source. The calls were made as follows: active = growth percent below 10; inactive = the rest.
Outcomes you can answer with include only these: TRUE = active, FALSE = inactive

// outcome(item) with item = "CCCN1C=C/C(=C\C(=O)n2ccc3ccccc32)c2ccccc21"
FALSE

Then this compound: "CCOC(=O)c1c(NCC(=O)Nc2cccc([N+](=O)[O-])c2)sc(C(C)=O)c1C"
TRUE

Then this compound: "C#Cc1cc(C(=O)Nc2ccc(CNCCN3CCOCC3)c(C(F)(F)F)c2)ccc1C"
FALSE

Then this compound: "Fc1ccc2nc(-c3cnn4cccnc34)sc2c1"
FALSE

Then this compound: "O=S(=O)(Oc1ccc(-c2cn3ccsc3n2)cc1)c1cccc(C(F)(F)F)c1"
FALSE

Further cases:
// outcome(item) with item = "COC(=O)[C@@H](Cc1c[nH]c2ccccc12)NC(=O)CCCCOc1cc(O)c2c(=O)cc(-c3ccccc3)oc2c1"
FALSE

Then this compound: "CCOC(=O)c1c(NC(=O)c2cccc(C(F)(F)F)c2)sc2c3c(ccc12)OCN(C)C3"
FALSE

Then this compound: "Cn1c(SCC(=O)c2ccc(Br)cc2)nc2ccccc2c1=O"
FALSE

Then this compound: "Nn1c(=O)n(-c2cccc(C(F)(F)F)c2)c(=O)c2cc(-c3ccc(F)cc3F)ccc21"
TRUE

Then this compound: "CCOC(=O)Nc1ccc2c(ccn2C(=O)c2cccc(F)c2)c1"
FALSE

Then this compound: "O=C(/C=C/c1cccc(F)c1)c1cccc(OCCCCOc2cccc(C(=O)/C=C/c3cccc(F)c3)c2)c1"
FALSE

Then this compound: "CCNCCOc1ccc(/C(=C(/CC)c2ccc(Cl)cc2)c2ccc(OCCCN(C)C)cc2)cc1"
TRUE

Then this compound: "COc1ccc(OC)c(CCn2cncc2-c2c[nH]c3ccc(Cl)cc23)c1"
FALSE

----------
- Test system: ACHN renal
- Assay Procedure: NCI-60 one-dose screen, 48 h (100 = growth as untreated, 0 = no growth, -100 = all killed)
- Assay Conditions: 10 µM unless noted
Compounds without any hit were thinned out: in the full panel of roughly 83,000, 20% have a hit.
Tag: 1.0 if measured growth is not below 20%, 0.0 if it is.

Field: example entries. Status: answers known.
Please tell me: is the molecule "O=C(/C=C/C=C/c1csc(Br)n1)NO" at or over 20% in terms of growth?
1.0

Then this molecule: "O=C1[C@@H]2Cc3c([nH]c4ccccc34)[C@H](c3ccc(Cl)cc3)N2C(=O)CN1C1CCN(Cc2ccccc2)CC1"
1.0

Then this molecule: "Cc1ccc(C(=O)Nc2ccc(CNCCN3CCOCC3)c(C(F)(F)F)c2)cc1C#Cc1cnc2cccnn12"
1.0

Further cases:
Please tell me: is the molecule "Nc1ncc(-c2ccc3ncnc(NCc4ccccc4)c3c2)cn1" at or over 20% in terms of growth?
1.0

Then this molecule: "O=C(CCCCCCNC(=O)C(O)(O)C(F)(F)F)Nc1ccc(Cl)cc1"
0.0

Then this molecule: "COc1cc2oc(-c3cccc(NC(=O)c4cccc([N+](=O)[O-])c4)c3)cc(=O)c2c(OC)c1OC"
1.0

Then this molecule: "CCC(=C(c1ccc(OCCN2CCCCCC2)cc1)c1ccc(OCCN2CCCCCC2)cc1)c1ccc(Cl)cc1"
1.0

Then this molecule: CCCCCCCCCCCC(=O)NC(C)(C)C(=O)N1CCCC1C(=O)NC(C)(C)C(=O)NC(C)(C)C(=O)N1CCCC1C(=O)NC(C)(C)C(=O)NC(C)(C)C(=O)N1CCCC1C(=O)NC(C)C(=O)NCCC(=O)NC(C)C(=O)NC(C)(C)C(=O)NC(C)(C)C(=O)NC(C)(C)C(=O)NCCC(=O)NC(C)(C)C(=O)NC(C)(C)C(=O)NC(C)(C)C(=O)NC(C)C(=O)NCCC(=O)O (stereo not drawn)
0.0
